- target-system: L-lactate dehydrogenase (Plasmodium falciparum (isolate CDC / Honduras))
- assay-overview: PfLDH activity inhibition – cell lysate, 3D7 strain, counter-screen for P. falciparum growth inhibition project (AID 2304);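 further: 0% = vehicle and 100% = reference inhibitor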
- details: P. falciparum 3D7 crude extract, LDH APAD/NBT absorbance; at 2 µM; active compounds read high
readout: inhibition (%)
Numbers only; they are read as %.

GET /values?readout=inhibition&item= COc1ccc(NS(=O)(=O)c2ccc(Oc3nc(C)nc4sc5c(c34)CCCC5)cc2)cc1
-2

GET /values?readout=inhibition&item= NC(N)=NC(=O)Nc1cc(F)c(Cl)c(Cl)c1
2

GET /values?readout=inhibition&item= Oc1ccc(CCNCCCCCNCCCc2ccc(Cl)cc2)cc1O
-3

GET /values?readout=inhibition&item= Cc1cccc(CCNC(=O)c2cc(Br)cc(N3CCN(c4ccncc4)CC3)c2)c1
0

GET /values?readout=inhibition&item= CCCC1N=C(N)N=C(N)N1c1ccc(CC)cc1 (centres undefined)
1

GET /values?readout=inhibition&item= Cc1[nH]c(C)c(-c2ccc(-c3ccc(F)cc3)cc2)c(=O)c1Cl
-2

GET /values?readout=inhibition&item= CN1CCCC(CN2CCN(Cc3ccc(-c4cccc(-c5nc6ccccc6[nH]5)c4)cc3)CC2)C1 (centres undefined)
-3

GET /values?readout=inhibition&item= O=C(NCCCN1CCCCC1)c1cccc(Nc2nccc(Nc3ccc(Oc4ccccc4)cc3)n2)c1
2

GET /values?readout=inhibition&item= CNC(=O)c1ccc(/C=C/C(=O)N2CCc3ccc(-c4ccccc4)cc3C2c2cccc(C(F)(F)F)c2)cc1 (centres undefined)
5

GET /values?readout=inhibition&item= CC(C)Nc1cc(C(=O)N[C@@H](Cc2ccccc2)[C@H](O)CNC2CCOCC2)c(F)c(N2CCCCS2(=O)=O)c1
-2

GET /values?readout=inhibition&item= COc1ccc(CN(C)Cc2ccc(NC(=O)c3cccc4c(=O)c5cccc(C)c5[nH]c34)cc2)cc1OC
-2

GET /values?readout=inhibition&item= CC(C)c1ccc(Cn2cc(-c3ccncc3)c3cc(OCc4ccccc4)ccc32)cc1
-1

GET /values?readout=inhibition&item= Cc1ccc2ccncc2c1N
-6

GET /values?readout=inhibition&item= CN(c1ccc2c(c1)nc(NCc1ccccc1)n2C)c1ccnc(Nc2ccc(CS(C)(=O)=O)cc2)n1
4

GET /values?readout=inhibition&item= Cc1nc(N)nc(N)c1-c1ccc(Br)c(Br)c1
-2

GET /values?readout=inhibition&item= Cc1c(C(C)(C)C)ccc2nc(N)nc(N)c12
-1

GET /values?readout=inhibition&item= COc1cc(Nc2nccc(-c3c(-c4cccc(NC(=O)c5c(F)cccc5F)c4)nn4ccccc34)n2)cc(OC)c1OC
4

GET /values?readout=inhibition&item= CCCC(C)NC[C@@H](O)[C@H](Cc1ccccc1)NC(=O)c1cc(NCC)cc(N2CCCCS2(=O)=O)c1 (some centres undefined)
-2

GET /values?readout=inhibition&item= CCN(CCCN1CCCCC1)c1cc(C)nc(Nc2cc(F)cc(F)c2)n1
5

GET /values?readout=inhibition&item= NC(=O)c1ccc(NCC(=O)Nc2cccc(-c3cccc(-c4nc5ccc(F)cc5[nH]4)c3)c2)cc1
-3

GET /values?readout=inhibition&item= Cc1cc(N[C@@H](CC(C)C)C(=O)NCCc2ccccc2)nc(Nc2ccccc2)n1
1

GET /values?readout=inhibition&item= O=C(Nc1ccccc1)Nc1cccc(-c2ccc(-c3nc4ccc(C(F)(F)F)cc4[nH]3)cc2)c1
-3

GET /values?readout=inhibition&item= O=C(NC1CC1)c1ccc(Nc2nccc(-c3c(-c4cccc(NC(=O)c5c(F)cccc5F)c4)nn4ccccc34)n2)cc1
-1

GET /values?readout=inhibition&item= CCCCOC(=O)[C@H](CCC)NC(=O)c1ccc(NS(=O)(=O)c2ccc3nc(N)[nH]c(=O)c3c2)cc1
-1

GET /values?readout=inhibition&item= COc1ccc(CNCc2ccc(-c3cccc(-c4nc5ccccc5[nH]4)c3)cc2)cc1
-3

GET /values?readout=inhibition&item= c1cc(CN2CCCCC2)cc(-c2ccc(-c3nc4ccccc4[nH]3)s2)c1
2

GET /values?readout=inhibition&item= CCOP(=O)(OCC)c1ccc(OC)c(-c2ccc[nH]2)c1
-2

GET /values?readout=inhibition&item= CCc1c(CCNC/C=C/C=C/CNCCc2ccc(OC)c(OC)c2CC)ccc(OC)c1OC
3

GET /values?readout=inhibition&item= CCn1c(-c2nonc2N)nc2c(-c3cccc(NC(=O)Nc4ccc(Cl)cc4)c3)ncc(OCCCN)c21
-1

GET /values?readout=inhibition&item= Cc1cccc2[nH]c(-c3cccc(-c4ccc(CN5CCC(C(N)=O)CC5)cc4)c3)nc12
4

GET /values?readout=inhibition&item= Cc1cccc(CN2CCC(C(=O)Nc3ccc(-c4nc5ccccc5[nH]4)cc3)CC2)n1
6

GET /values?readout=inhibition&item= Cc1ccccc1OCCCc1c(C)nc(N)nc1N
-3

GET /values?readout=inhibition&item= COc1cc2c(cc1OC)CN(c1cc(N)c3cc(OC)c(OC)cc3n1)CC2
-3

GET /values?readout=inhibition&item= c1ccc(Oc2ccc(Nc3ccnc4cc(-c5ccc(CNCCN6CCOCC6)o5)ccc34)cc2)cc1
-3

GET /values?readout=inhibition&item= Cc1cc(NC2CCCC2)nc(Nc2ccccc2F)n1
-2

GET /values?readout=inhibition&item= Cc1ccn2c(N(Cc3ccccc3)C(=O)c3ccc(Cl)c(Cl)c3)c(-c3ccccc3)nc2c1
-7

GET /values?readout=inhibition&item= CCCCCNc1ccnc2cc(Cl)ccc12
-2

GET /values?readout=inhibition&item= CS(=O)(=O)Cc1ccc(Nc2nccc(N3CCCc4cc(NC(=O)Nc5cccc(C(F)(F)F)c5)ccc43)n2)cc1
-4

GET /values?readout=inhibition&item= CCn1c(-c2nonc2N)nc2c(-c3cccc(NC(=O)Nc4cccc(C(F)(F)F)c4)c3)ncc(OCCCN)c21
2
